# assay_notes: Antiproliferative activity against human MJ cells
# Assay type: functional, cell-based
measurement_label: pIC50
To interpret pIC50, take it as minus log10 of a concentration measured in moles per litre.

Consider the compound shown here: CC1(C)CCC2=C(O1)c1ccc(C#N)cc1C(=O)C2=O What is its recorded pIC50?
4.78

---

Answer each item with its documented pIC50.
# system: Mucosa-associated lymphoid tissue lymphoma translocation protein 1 (Homo sapiens, UniProt Q9UDY8)
# Sequence (Q9UDY8 whole entry): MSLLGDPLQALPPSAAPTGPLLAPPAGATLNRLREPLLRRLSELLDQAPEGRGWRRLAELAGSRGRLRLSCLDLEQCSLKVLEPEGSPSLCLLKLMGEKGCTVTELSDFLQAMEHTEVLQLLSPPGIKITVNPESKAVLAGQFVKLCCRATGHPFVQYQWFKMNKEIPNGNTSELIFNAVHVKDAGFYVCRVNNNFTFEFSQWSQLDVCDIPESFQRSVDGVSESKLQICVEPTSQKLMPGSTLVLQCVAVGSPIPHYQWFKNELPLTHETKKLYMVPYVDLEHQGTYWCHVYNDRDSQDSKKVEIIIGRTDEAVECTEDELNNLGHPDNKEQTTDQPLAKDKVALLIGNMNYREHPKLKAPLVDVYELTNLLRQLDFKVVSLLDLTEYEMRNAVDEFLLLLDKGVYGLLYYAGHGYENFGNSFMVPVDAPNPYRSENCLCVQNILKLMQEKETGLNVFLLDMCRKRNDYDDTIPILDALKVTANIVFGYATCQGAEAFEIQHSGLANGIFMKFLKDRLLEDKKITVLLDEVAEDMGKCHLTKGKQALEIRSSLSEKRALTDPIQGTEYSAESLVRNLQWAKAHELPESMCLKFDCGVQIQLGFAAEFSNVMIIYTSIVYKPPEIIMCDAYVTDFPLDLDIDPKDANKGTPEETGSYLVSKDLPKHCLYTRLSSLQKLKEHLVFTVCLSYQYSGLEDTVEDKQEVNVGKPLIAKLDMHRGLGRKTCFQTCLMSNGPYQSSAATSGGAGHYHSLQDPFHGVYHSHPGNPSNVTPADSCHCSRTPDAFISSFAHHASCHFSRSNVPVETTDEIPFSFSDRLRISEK
# assay_notes: Inhibition of MALT1 in human Jurkat cell lysate preincubated for 2 hrs followed by addition of 25 uM Ac-LRSR-AMC substrate for 3 hrs by fluorescence based assay
# Type: cell-free
Scale: negative log10 of molar concentration, which is what pIC50 denotes.

Value lookup for pIC50; key = O=C1C=C(NCCCN2CCCC2)c2ccccc2C1=O
4.92

What measured pIC50 goes with O=C1C=C(NC2CCN(Cc3ccccc3)CC2)c2ccccc2C1=O ?
5.27

Return reported pIC50; argument: COCCNC1=CC(=O)C(=O)c2ccccc21
5.11

Fill in the blank: the reported pIC50 of CC1(C)CCC2=C(O1)c1ccccc1C(=O)C2=O is ____.
5.72

# get_value(readout='pIC50', item= CN(C)CCNC1=CC(=O)C(=O)c2ccccc21 )
5.80

Could you tell me which pIC50 is on file for CC(C)(C)OC(=O)NCCNC1=CC(=O)C(=O)c2ccccc21 ?
4.83

# get_value(readout='pIC50', item= O=C(CNC1=CC(=O)C(=O)c2ccccc21)NCCc1ccccc1 )
5.51

I am curious: what pIC50 value has been reported for CN(C)C1=CC(=O)C(=O)c2ccccc21 ?
5.60

Consider the compound shown here: O=C1C=C(NC2CCN(Cc3ccccc3)C2)c2ccccc2C1=O (configuration not stated) What is its recorded pIC50?
5.82

Please give the measured pIC50 for this compound: O=C1C=C(NCCCN2CCCC2=O)c2ccccc2C1=O
4.84

---

# system: Mucosa-associated lymphoid tissue lymphoma translocation protein 1 (Homo sapiens, UniProt Q9UDY8)
# assay_notes: Inhibition of MALT1 in human Jurkat cell lysate preincubated for 2 hrs followed by addition of 25 uM Ac-LRSR-AMC substrate for 3 hrs by fluorescence based assay
# Type: cell-free
I'd appreciate it if you could supply pIC50 values for the items below.
Worth noting: pIC50 values are minus log10 of concentrations stated in mol/L.

Query (compound): CNC(=O)CNC1=CC(=O)C(=O)c2ccccc21 ; field requested: pIC50
5.52

// pIC50 lookup, key: O=C1C=C(NCCN2CCOCC2)c2ccccc2C1=O
4.66

May I ask what pIC50 has been recorded for CC(C)NC1=CC(=O)C(=O)c2ccccc21 ?
4.69

Quick check: pIC50 of O=C1C=C(NCC(=O)N2CCCC2)c2ccccc2C1=O ?
5.39
